B1: TPR t1 (parent)
chain: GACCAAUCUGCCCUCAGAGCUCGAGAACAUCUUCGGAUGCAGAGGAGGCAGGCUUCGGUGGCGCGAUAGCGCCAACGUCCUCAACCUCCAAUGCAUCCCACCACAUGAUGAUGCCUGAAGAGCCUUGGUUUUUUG

Variants of: B1
Test: polymerase ribozyme fitness, log enrichment relative to wild type (log ratio); higher = more active; in vitro selection for triplet polymerase activity

- monomer-sequence: "GACCAAUCUGCCCUCAGUGCUCGAGAACAUCUUCGGAUGCAGAGGAGGCAGGCUUCGGUGGCGCGAUAGCGCCAACGUCCUCAACCUCCAAUGCAUCCCACCACAUGAUGAUGCCUGAAGAGCCUUGGUUUUGUG [A18U U133G]"
  polymerase ribozyme fitness (log ratio): -1.41
- monomer-sequence: "GACCAGUCUGCCCUCAGAGCUAGAGAACAUCUUCGGAUGCAGAGGAGUCAGGCUUCGGUGGCGCGAUAGCGCCAACGUCCUCAACCUCCAAUGCAUCCCACCACAUGAUUAUGCCUGAAGAGCCUUGGUUUUUUG [A6G C22A G48U G110U]"
  polymerase ribozyme fitness (log ratio): -6.03
- monomer-sequence: "GACCAAUCUGCCCUCAGAGCUCGAGAACAUCUUCGGAUGCAGAGGAAGCAGGCUUCGGUGGCGCGAUAGCGCCAACGUUCUCAACCUCCAAUGCAUCCCUCCACAUGAUGUUGCCUGAAAAGCCGUGGUUACUUG [G47A C79U A100U A111U G120A U125G U131A U132C]"
  polymerase ribozyme fitness (log ratio): -6.42
- monomer-sequence: "GACCAAUCUGGCCUCAGAGCUCGAGAACAUCUUCGGAUGCAUAGUAGGCACGCUUCGGUGGCGCGAUAGCGCCAACGUCCUCAACCUCCAAUGCAUCCCACCACAUGAUGAUGCCUGAAAAGCCUUGGUUUUUGG [C11G G42U G45U G51C G120A U134G]"
  polymerase ribozyme fitness (log ratio): -4.64
- monomer-sequence: "GACCAAUCUGCCCUCAGAGCUCGAGAACAUCUUCGGAUGCAGAGGAGGCAGGCUUGGGUGGCGCGAUAGCGCCAACGUCCUCAACCUCCAAUGCAUCUCACCACAUGAUAAUGCCUGAAGAGCCUUGGUUUUUUG [C56G C98U G110A]"
  polymerase ribozyme fitness (log ratio): -1.9
- monomer-sequence: "GACCAAUCUGCCCUCAGAGCUCGAGAACAUCUUCGGAUGCAGAAGUGGCAGGCUUCGGUGGCGCGAUAGCGCCAACGUCCUCAACCUCCAAUUCAUCCCACCAUAUGAUGAUGCCUGAAGAGCCUUGGUUUUUUG [G44A A46U G93U C104U]"
  polymerase ribozyme fitness (log ratio): -2.25
- monomer-sequence: "GACCAAUCUGCCCUCAGAGCUCGAGAACAUCUUCGGAUGCAGAGGAGGCAGGCUUCGGUGGCGCGAUAGCGCCAACCUCCUCAACCUCCGAUGCAUCCCACCACAUGAUGGUGCCUGAAGAGCCUUGGUUUUUUG [G77C A90G A111G]"
  polymerase ribozyme fitness (log ratio): -0.0361
- monomer-sequence: "GACCAAUCUGCCCUCAGAGCUCGAGAACAUCUUCGGAUCCAGAGGAGGCAGGCUAAGGUGGCGCGAUAGCGCCAACGUCCUCAACCUCCAAUGCAUCCCACCACAUGAUGACGCCUGAAGAGCCUUGGUUUUUUG [G39C U55A C56A U112C]"
  polymerase ribozyme fitness (log ratio): -0.17
- monomer-sequence: "GACCAAUGUGCCCUCAGAGCUCGAGAACAUCUUCGGAUGCAGAGGAGGCUGGCCUCGGUGGCGCGAUAGCGCCAACGUCCUCAACCUCCAAUGCAUCCCACCACAAGAUGAUGCCUAAAGAGCCUUGGUUUUUUG [C8G A50U U54C U106A G117A]"
  polymerase ribozyme fitness (log ratio): -0.842
- monomer-sequence: "GACCAUUCUGCCCUCAGAGCUCGAGAACAUCUUCGGAUGCAGAGGAGGCAGGCUUCGAUGGCGCGAUAGCGCCAACGUCCUCUACCUCCAAUGCAUCCCACCACAAGAUGAUGCCUGAAGAGCCUUGGUUUUUUG [A6U G58A A83U U106A]"
  polymerase ribozyme fitness (log ratio): 0.545
- monomer-sequence: "GACCAAUCUGCCCUCAGAGCUCGAGAACAUCUUCGGAUGCAGAGGAGGCAGGCGUCGGUGGCGCGAUAGCGCCAACGUCCUCAACCUACAAUGCAUCCCACCACUUGAUGAUGCCUGAAGAGCCUUGGUUUUUUG [U54G C88A A105U]"
  polymerase ribozyme fitness (log ratio): -2.56
- monomer-sequence: "GACCAAUCUGCCCUCAGAGCUCGAGAACAUCUUCGGAUGUAGAGGAGGAAGGCUUCGGUGUCGCGAUAGCGCCAACGUCCUGAACCUCCAAUGCAUCCCACCACAUGAUGAUGCCUGAAGAGCCUUGGUUGUUUG [C40U C49A G61U C82G U131G]"
  polymerase ribozyme fitness (log ratio): -0.822
- monomer-sequence: "GACCAAUCUGCCCUCAGAGCUCGAGAACAUCUUCGGAUGCAGAGGAGGCAGGCUUGGGUGGCGCGAUAGCGCCUACGUCCUCAACCUCCAAUGCAUCCCACCACAUGAUGAUGCCUGAAGAGCUUUGGUUUUUUG [C56G A74U C124U]"
  polymerase ribozyme fitness (log ratio): 0.777
- monomer-sequence: "GACCAAUCUGCCCUCAGAGCUCGAGAACAUCUUCGGAUGCAGAGGAGGCAGGCGUCGGUGGCGCGAUAGCGCCAACGUCCUCAACUUCCAAUGCAUCCCACCACAUGAUGAUGCCUUAAGAGCCUUGGUUUUUUG [U54G C86U G117U]"
  polymerase ribozyme fitness (log ratio): -2.55
- monomer-sequence: "GACCAAUCUGCCCUCAGAGCUCGAGAACAUCUUCGGAUGCAGAGGAGGCAGGCUUCGGUAGCGCGAUAGCGCCAACGUCCUCAACCUCCAAUGCAUCCCACCAAAUGAUGAUUCCUGAAGAGCCUUGGUUUUUUG [G60A C104A G113U]"
  polymerase ribozyme fitness (log ratio): -5.38
- monomer-sequence: "GACCAAUCUGCCCUCAGAGCUCGAGAACAUCUUCGGAUGCGGAGGAGGCAGGCUUCGGUGUCGCGAUAGCGCCAACGUCCUCAGCCUCCAAUGCAGUCCACCACAUGAUGAUGCCUGAAGAGCCUUGGUUUUUUG [A41G G61U A84G U96G C97U]"
  polymerase ribozyme fitness (log ratio): -6.44
- monomer-sequence: "GACCAAUCUGCCAUCAGAGCUCGAGAACAUCUUCGGAUGCUGAGGAGGCAGGCUUCUGUGGCGCGAUAGCGCCAACGUCCUCAACCUCCAAUGCAUCCCACCACAUGAUGAUGCCUGAAGAGCCUUGGUUUUUUG [C13A A41U G57U]"
  polymerase ribozyme fitness (log ratio): -3.67
- monomer-sequence: "GACCAAUCUGCCCUCAGAGCUCGAGAACAUCUUCGGAUGCAGAGGAGGCAGGCUUCGGUGGCGCGAUAGCGCCAACGUCCUCAACCUCCAAUGGAUCCCACCACAUGAUGAUGUCUGAAGAGCCUUGCUUUUUUG [C94G C114U G128C]"
  polymerase ribozyme fitness (log ratio): -3.47
- monomer-sequence: "GACCAAUCUGCCCUCAGAGCUCGAGAACAUCUUCGGAUGCAGAGGAGGCAGGCUUCGGUGGCGCGAUAGCACCAACGUCCUCAACCUCCAAUGCAUCCCACCACAUGAUGAUGCCUGAAGAGCCUUGGUUUUUUU [G71A G135U]"
  polymerase ribozyme fitness (log ratio): -1.5
- monomer-sequence: "GACCGAUCUGCCCUCAGAGCUCGAGAACAUCUUCGGAUGCAGAGGAGGCAGGUUUCGGUGGCGCGAUAGCACCAACGUCCUCAACCUCCAAUGCAUCCCACCACAUGAUGAUACCUGAAGAGCCUUGGUUUUUUG [A5G C53U G71A G113A]"
  polymerase ribozyme fitness (log ratio): -2.7
- monomer-sequence: "GACCAAUCUGCCCUCAGAGCUCGAGAACAUCUUCGGAUGCAGAGGAGACAGGCUUCGGUGGCGCGAUAGCGCCAACGUCCUCAAACUCCAAUGCAUCCCACCACAUGAUGAUGCCUGAAGAGCCUUGGUUUUUUG [G48A C85A]"
  polymerase ribozyme fitness (log ratio): -0.739
- monomer-sequence: "GACCAAUCUGCCCUCAGAGCUCGAGAACAUCUUCGGAUGCAGAGGAGGCAGGCUUCGGUGGCGCGAUAGCGCCAACGUCCUCAACCUCCAAUGCAUCCAACCACAUGAUGAUGCCUGAAGAACCUUGGUUUUUUG [C99A G122A]"
  polymerase ribozyme fitness (log ratio): -5.29
